Assay details: Half life in human plasma at 1 uM
Format: ADME, cell-free
Quantity kind: half-life at 1 µM (h)
State the answer as a number, implicitly in h.

Any idea what its half-life at 1 µM is? The molecule is N[C@@H](COCc1ccccc1)C(=O)Nc1nc2ccc(OC(F)(F)F)cc2s1 5
